Field IC50: reported value for Adenosine receptor A2b (Homo sapiens); entries drawn from several documents.
property name: IC50

- Cc1ccc(-c2nc3c(c4nc(C(C)C)nn24)CC(=O)N3)o1: 100 to 1000 nM
- Cc1nc2nc(N[C@@H](C)c3cccnc3)nc(C(=O)N3CC(NC(=O)c4ccoc4)C3)c2s1: 100 to 1000 nM
- Cn1cc(N2CCCC(c3nc4c5cc(Cl)ccc5nc(N)n4n3)C2)cn1 (single isomer, unassigned): 430 nM
- Cc1ccc(-c2nc(NC(=O)C3CC3)cc3nc(-c4ccco4)nn23)o1: 10 to 100 nM

----------
pIC50: −log10 of the molar value.
// note: pIC50 values for UniProtKB P29275 were reported in different studies
property name: pIC50

• COc1cccc2c1nc(N)n1nc([C@H]3C[C@H](c4ccc(C(C)(C)O)cc4)C3)nc21 = 7.99
• Cc1c(-c2ccn(C)n2)nc(N)c2nc(Cc3ccccc3)nn12 = 7.08
• Cc1c(-c2cccc(F)c2)nc(N)n2nc(CNCc3ccc(C(F)(F)F)cc3)nc12 = 6.80
• COc1cc2nc(N)n3nc([C@@H]4CC[C@H](C)N(c5cnn(C(C)C(C)(C)O)c5)C4)nc3c2cc1F (single isomer, unassigned) = 7.75
• COc1cc2nc(N)n3nc([C@@H]4CCCN(c5cn(C)nn5)C4)nc3c2cc1F = 7.07
• Cc1c(-c2cc(F)c(F)c(F)c2)nc(N)c2nc(Cc3ccccc3)nn12 = 6.81
• COc1cc2nc(N)n3nc(C4(F)CCN(c5cnn(CC(C)(C)O)c5)C4)nc3c2cc1F (single isomer, unassigned) = 5.61
• CCn1cc([C@]2(O)CCC[C@H](c3nc4c5cc(F)c(OC)cc5nc(N)n4n3)C2)cn1 (single isomer, unassigned) = 5.20
• COc1cccc2c1nc(N)n1nc([C@H]3C[C@H](c4ncc(C(C)(C)N)cc4C)C3)nc21 = 8.80
• Cc1c(-c2cc(F)ccc2Cl)nc(N)c2nc(Cc3ccccc3)nn12 = 7.07
• Cc1cc2nc(N)n3nc([C@@H]4CC[C@H](C)N(c5cnn(CC(C)(C)O)c5)C4)nc3c2cc1F = 8.10
• Cc1c(-c2cccc(Cl)c2F)nc(N)c2nc(Cc3ccccc3)nn12 = 7.34
• COc1cc2nc(N)n3nc([C@H]4CN(c5cnn(CC(C)(C)O)c5C)CCO4)nc3c2cc1F = 5.76
• COc1cccc2c1nc(N)n1nc(C3CC3c3nc4ccccc4n3C)nc21 (stereo not shown) = 8.54
